- Experimental system: Cystic fibrosis transmembrane conductance regulator (Homo sapiens, UniProt P13569, F508DEL)
- Sequence (P13569 as listed by the source): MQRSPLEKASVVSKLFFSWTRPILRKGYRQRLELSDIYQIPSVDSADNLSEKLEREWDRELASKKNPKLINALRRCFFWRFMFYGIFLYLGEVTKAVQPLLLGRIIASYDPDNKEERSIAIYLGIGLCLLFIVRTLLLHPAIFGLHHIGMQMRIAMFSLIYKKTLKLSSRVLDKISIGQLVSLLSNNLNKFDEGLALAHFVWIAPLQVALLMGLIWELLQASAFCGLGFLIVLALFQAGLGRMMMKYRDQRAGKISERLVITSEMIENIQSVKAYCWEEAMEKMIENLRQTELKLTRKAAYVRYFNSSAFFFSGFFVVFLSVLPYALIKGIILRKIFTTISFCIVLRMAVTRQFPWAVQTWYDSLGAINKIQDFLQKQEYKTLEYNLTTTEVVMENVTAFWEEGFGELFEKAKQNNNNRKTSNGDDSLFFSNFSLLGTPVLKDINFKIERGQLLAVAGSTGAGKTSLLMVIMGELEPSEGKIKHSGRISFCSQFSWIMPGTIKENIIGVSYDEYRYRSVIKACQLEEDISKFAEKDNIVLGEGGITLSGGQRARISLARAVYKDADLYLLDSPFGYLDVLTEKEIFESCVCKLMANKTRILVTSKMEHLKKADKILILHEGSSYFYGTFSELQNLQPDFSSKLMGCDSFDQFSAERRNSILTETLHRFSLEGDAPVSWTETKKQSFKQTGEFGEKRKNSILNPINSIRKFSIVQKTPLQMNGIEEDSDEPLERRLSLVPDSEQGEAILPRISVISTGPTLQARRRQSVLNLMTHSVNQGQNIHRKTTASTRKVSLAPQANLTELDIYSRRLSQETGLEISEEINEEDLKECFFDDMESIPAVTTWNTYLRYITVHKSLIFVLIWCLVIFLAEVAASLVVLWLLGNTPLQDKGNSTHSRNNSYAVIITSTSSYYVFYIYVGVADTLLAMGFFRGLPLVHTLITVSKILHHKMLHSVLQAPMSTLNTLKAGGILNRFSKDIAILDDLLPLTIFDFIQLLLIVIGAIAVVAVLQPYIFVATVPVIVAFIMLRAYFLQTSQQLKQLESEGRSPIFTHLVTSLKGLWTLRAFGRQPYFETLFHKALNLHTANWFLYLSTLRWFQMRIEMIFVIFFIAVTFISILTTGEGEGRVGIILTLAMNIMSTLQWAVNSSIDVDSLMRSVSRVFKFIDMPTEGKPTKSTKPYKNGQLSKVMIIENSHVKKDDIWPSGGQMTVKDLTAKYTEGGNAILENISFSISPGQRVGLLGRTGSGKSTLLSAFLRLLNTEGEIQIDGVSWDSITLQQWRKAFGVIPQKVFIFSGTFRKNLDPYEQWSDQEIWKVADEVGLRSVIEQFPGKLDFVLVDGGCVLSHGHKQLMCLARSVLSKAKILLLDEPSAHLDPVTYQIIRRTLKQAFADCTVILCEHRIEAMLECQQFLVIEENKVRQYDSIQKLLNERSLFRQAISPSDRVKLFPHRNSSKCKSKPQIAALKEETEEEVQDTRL
- Assay protocol: Potentiation of CFTR F508del mutant (unknown origin) expressed in CHO cells assessed as chloride transport by measuring membrane potential preincubated for 5 mins followed by forskolin addition by FLIPR assay
- Type: cell-based
Metric: EC50 (nM)
Give your result in nM as a bare value.

Bench note: what EC50 did "COC(=O)c1cc(-c2ccco2)c(C(F)(F)F)cc1N" show?
920

Would you mind telling me what EC50 value was observed for CC(C)c1ccc(NC(=O)C(c2ccccc2)N(C)C(=O)Cc2c[nH]c3ccccc23)cc1 (configuration not stated) ?
390
